assay.system: SaCas9 (Staphylococcus aureus, UniProt J7RUA5)
Sequence (J7RUA5 1-1053): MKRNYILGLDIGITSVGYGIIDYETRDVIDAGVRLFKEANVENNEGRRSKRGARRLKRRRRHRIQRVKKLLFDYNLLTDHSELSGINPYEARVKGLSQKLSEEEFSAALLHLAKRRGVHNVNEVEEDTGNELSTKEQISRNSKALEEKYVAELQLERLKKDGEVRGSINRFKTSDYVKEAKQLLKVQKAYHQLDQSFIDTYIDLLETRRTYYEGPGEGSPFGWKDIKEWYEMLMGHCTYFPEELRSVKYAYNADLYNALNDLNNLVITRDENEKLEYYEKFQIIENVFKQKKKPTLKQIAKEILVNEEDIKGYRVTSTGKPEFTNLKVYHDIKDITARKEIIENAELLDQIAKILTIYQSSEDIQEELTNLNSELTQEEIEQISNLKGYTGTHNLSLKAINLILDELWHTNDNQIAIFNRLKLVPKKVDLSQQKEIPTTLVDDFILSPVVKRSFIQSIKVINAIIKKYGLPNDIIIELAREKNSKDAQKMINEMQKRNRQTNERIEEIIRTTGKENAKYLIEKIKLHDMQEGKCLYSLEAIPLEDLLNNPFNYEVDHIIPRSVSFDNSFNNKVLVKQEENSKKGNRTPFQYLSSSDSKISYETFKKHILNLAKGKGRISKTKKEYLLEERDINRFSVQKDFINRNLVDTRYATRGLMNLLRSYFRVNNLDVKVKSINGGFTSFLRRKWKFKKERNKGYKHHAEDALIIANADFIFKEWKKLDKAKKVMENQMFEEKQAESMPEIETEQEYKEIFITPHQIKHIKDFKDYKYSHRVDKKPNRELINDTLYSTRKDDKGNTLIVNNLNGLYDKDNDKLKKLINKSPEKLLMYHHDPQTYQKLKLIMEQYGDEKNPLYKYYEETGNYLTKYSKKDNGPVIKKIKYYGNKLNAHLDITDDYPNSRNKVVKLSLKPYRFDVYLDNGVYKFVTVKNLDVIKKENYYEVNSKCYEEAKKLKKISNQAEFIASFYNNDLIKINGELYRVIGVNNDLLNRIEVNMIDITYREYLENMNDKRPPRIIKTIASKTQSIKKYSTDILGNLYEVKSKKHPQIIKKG
assay.details: Strand displacement assay, SaCas9 primary screen
Assay type: biochemical
measurement.setup: SaCas9 primary screen, weaker potential hits, replicate 2
Listed here are compounds together with their documented Normalized Zscore Rep 2.

Noted for Cc1cc(C)c(S(=O)(=O)Nc2cnc(N(CC(C)C)CC(C)C)c(C(=O)O)c2)cc1C [Cpd F293-0589] : its Normalized Zscore Rep 2 reads 0.2929

The compound listed as CCN(Cc1ccccc1)c1ncc(NS(=O)(=O)c2c(C)cc(C)cc2C)cc1C(=O)O [Cpd F293-0002] shows Normalized Zscore Rep 2 equal to 0.2291

Next compound, Normalized Zscore Rep 2 to be filled in.
// Cc1ccccc1OCc1nn2c(C(C)(C)C)nnc2s1 [Compound D727-0351] : Normalized Zscore Rep 2 value = 0.3227

src = patent US20240115557A1
